Numbers sourced from ChEMBL document CHEMBL1155012.

test: Ratio of drug level in brain to plasma in C57 albino mouse at 10 mg/kg, po after 6 hrs; format: ADME, organism-based; design: dose 10 mg/kg, route oral; conditions: read-out: BPR
ASSAY_METRIC: Kp at 6 h
Returns: the value as a bare number; no unit string appended.

Which value of Kp at 6 h has been reported for Nc1nc(OC(c2ccc(-c3cccc(F)c3)cc2)C(F)(F)F)cc(-c2ccc(C[C@H](N)C(=O)O)cc2)n1 (stereo partly specified) in the records?
0.01

* * *

assay: Volume of distribution at steady state in C57 albino mouse 1 mg/kg, iv; format: ADME, organism-based; parameters: dose 1 mg/kg, route intravenous; conditions: in vivo, read-out: Vdss
ASSAY_METRIC: Vd (L/kg)
All answers are understood in L/kg, so give the number only.

Sample Nc1nc(OC(c2ccc(-c3cccc(F)c3)cc2)C(F)(F)F)cc(-c2ccc(C[C@H](N)C(=O)O)cc2)n1 (stereo partly specified) — what was its Vd?
0.73

* * *

assay: Ratio of drug level in brain to plasma in C57 albino mouse at 10 mg/kg, po after 2 hrs; format: ADME, organism-based; design: dose 10 mg/kg, route oral; details: read-out: BPR
ASSAY_METRIC: Kp at 2 h
# answer = number (no unit)

Please report the recorded Kp at 2 h for Nc1nc(OC(c2ccc(-c3cccc(F)c3)cc2)C(F)(F)F)cc(-c2ccc(C[C@H](N)C(=O)O)cc2)n1 (stereo partly specified) .
0.01

* * *

test: AUC (0 to infinity) in C57 albino mouse at 1 mg/kg, iv; assay type: ADME, organism-based; design: time infinity, dose 1 mg/kg, route intravenous; details: plasma
ASSAY_METRIC: AUC(0-inf)

Can you look up the measured AUC(0-inf) of Nc1nc(OC(c2ccc(-c3cccc(F)c3)cc2)C(F)(F)F)cc(-c2ccc(C[C@H](N)C(=O)O)cc2)n1 (stereo partly specified) for me?
8.54 µM·h

* * *

assay: Cmax in C57 albino mouse at 10 mg/kg, po; type: ADME, organism-based; parameters: dose 10 mg/kg, route oral; details: in vivo
ASSAY_METRIC: Cmax (nM)
State just the number; it will be interpreted in nM.

State the recorded Cmax for this entry: Nc1nc(OC(c2ccc(-c3cccc(F)c3)cc2)C(F)(F)F)cc(-c2ccc(C[C@H](N)C(=O)O)cc2)n1 (stereo partly specified)
641

* * *

This section presents compounds with their documented pIC50 values.
Target protein (sequence): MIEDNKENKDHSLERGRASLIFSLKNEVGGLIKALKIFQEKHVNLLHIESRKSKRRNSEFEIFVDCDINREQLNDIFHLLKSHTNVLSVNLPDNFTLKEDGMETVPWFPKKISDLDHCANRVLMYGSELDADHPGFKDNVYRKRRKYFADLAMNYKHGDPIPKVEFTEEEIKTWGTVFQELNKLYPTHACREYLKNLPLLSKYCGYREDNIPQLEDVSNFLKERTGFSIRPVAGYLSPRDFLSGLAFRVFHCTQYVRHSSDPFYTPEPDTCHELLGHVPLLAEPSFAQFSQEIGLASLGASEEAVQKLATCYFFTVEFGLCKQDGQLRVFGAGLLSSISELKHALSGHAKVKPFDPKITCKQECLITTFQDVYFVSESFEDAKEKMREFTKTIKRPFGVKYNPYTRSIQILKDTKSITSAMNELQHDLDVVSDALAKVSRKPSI
On this scale, pIC50 is minus log10 of a concentration expressed in M (mol/L).

Here is how some compounds turned out for pIC50.
COc1ccc(CNc2ccc(-c3ccc(C[C@H](N)C(=O)O)cc3)nn2)cc1OC1CCCC1 ... 6.01
CCn1c2ccccc2c2cc(CNc3cnc(-c4ccc(C[C@H](N)C(=O)O)cc4)cn3)ccc21 ... 7.51
Cc1cccc(-c2ccccc2C(Oc2cc(-c3ccc(C[C@H](N)C(=O)O)cc3)nc(N)n2)C(F)(F)F)c1 (some centres undefined) ... 7.15
Nc1nc(OC(c2ccc3ccccc3c2)C(F)(F)F)cc(-c2ccc(C[C@H](N)C(=O)O)cc2)n1 (some centres undefined) ... 6.74

Entry Nc1nc(OC(c2ccccc2-n2ccc(C(F)(F)F)n2)C(F)(F)F)cc(-c2ccc(C[C@H](N)C(=O)O)cc2)n1 (some centres undefined) : reported pIC50 = ?
7.54

Note, next up: Nc1nc(OC(c2sccc2-c2ccco2)C(F)(F)F)cc(-c2ccc(C[C@H](N)C(=O)O)cc2)n1 (some centres undefined)
7.27

Next compound up: N[C@@H](Cc1ccc(-c2cnc(NCC3CCc4ccccc4C3)cn2)cc1)C(=O)O (some centres undefined)
7.34

Now consider `C[C@@H](Oc1cc(-c2ccc(C[C@H](N)C(=O)O)cc2)nc(N)n1)c1ccc2ccccc2c1` and answer again.
6.42
